# System: P388
# Experiment notes: Minimum effective dose was determined on P388 leukemia cells in mice
# Assay type: functional, Mus musculus
Property name: MED

Compound: CO[C@@]12C(COC(N)=O)C3=C(C(=O)C(C)=C(OCCN4CCCCC4)C3=O)N1CC1NC12 (some centres undefined)
Readout value: 8.71e-07 M/kg

Compound: CCO[Si](CCCOC1=C(C)C(=O)C2=C(C1=O)C(COC(N)=O)[C@@]1(OC)C3NC3CN21)(OCC)OCC (some centres undefined)
Readout value: 3.59e-07 M/kg

Compound: CO[C@@]12C(COC(N)=O)C3=C(C(=O)C(C)=C(OCCN4CCSCC4)C3=O)N1CC1NC12 (some centres undefined)
Readout value: 2.06e-07 M/kg

Compound: CCOCCOC1=C(C)C(=O)C2=C(C1=O)C(COC(N)=O)[C@@]1(OC)C3NC3CN21 (some centres undefined)
Readout value: 4.65e-07 M/kg

----------
# Log 1/C per entry
# Organism: Mus musculus
# Experiment notes: log(1/C) was estimated in mice
# Format: organism-based
# Setup conditions: in vivo
Property name: Log 1/C

Compound: CO[C@@]12C(COC(N)=O)C3=C(C(=O)C(C)=C(OC4CCOCC4)C3=O)N1CC1NC12 (some centres not stated)
Readout value: 6.93

Compound: COC1=C(C)C(=O)C2=C(C1=O)[C@@H](COC(N)=O)[C@@]1(OC)[C@H]3N[C@H]3CN21
Readout value: 6.84

Compound: CO[C@@]12C(COC(N)=O)C3=C(C(=O)C(C)=C(OCCC4CCCN4C)C3=O)N1CC1NC12 (some centres not stated)
Readout value: 5.21

Compound: CO[C@@]12C(COC(N)=O)C3=C(C(=O)C(C)=C(OCCSCc4ccccc4)C3=O)N1CC1NC12 (some centres not stated)
Readout value: 6.37

Compound: CO[C@@]12C(COC(N)=O)C3=C(C(=O)C(C)=C(OCCCN4CCN(C)CC4)C3=O)N1CC1NC12 (some centres not stated)
Readout value: 4.9

Compound: CCOC(=O)CCCOC1=C(C)C(=O)C2=C(C1=O)C(COC(N)=O)[C@@]1(OC)C3NC3CN21 (some centres not stated)
Readout value: 4.85

Compound: CO[C@@]12C(COC(N)=O)C3=C(C(=O)C(C)=C(OCCNC(C)=O)C3=O)N1CC1NC12 (some centres not stated)
Readout value: 6.03

Compound: CO[C@@]12C(COC(N)=O)C3=C(C(=O)C(C)=C(OCCN4CCCCC4)C3=O)N1CC1NC12 (some centres not stated)
Readout value: 6.06

Compound: CCSCC(O)COC1=C(C)C(=O)C2=C(C1=O)C(COC(N)=O)[C@@]1(OC)C3NC3CN21 (some centres not stated)
Readout value: 6.37

Compound: CO[C@@]12C(COC(N)=O)C3=C(C(=O)C(C)=C(OCCOc4ccccc4)C3=O)N1CC1NC12 (some centres not stated)
Readout value: 5.45

Compound: CO[C@@]12C(COC(N)=O)C3=C(C(=O)C(C)=C(OCCN4CCSCC4)C3=O)N1CC1NC12 (some centres not stated)
Readout value: 6.67

Compound: CO[C@@]12C(COC(N)=O)C3=C(C(=O)C(C)=C(OCCSc4ccccc4)C3=O)N1CC1NC12 (some centres not stated)
Readout value: 5.17

Compound: CO[C@@]12C(COC(N)=O)C3=C(C(=O)C(C)=C(OC4CCN(C)CC4)C3=O)N1CC1NC12 (some centres not stated)
Readout value: 5.15

Compound: CO[C@@]12C(COC(N)=O)C3=C(C(=O)C(C)=C(OCCOCCCl)C3=O)N1CC1NC12 (some centres not stated)
Readout value: 7.21

Compound: CCO[Si](CCCOC1=C(C)C(=O)C2=C(C1=O)C(COC(N)=O)[C@@]1(OC)C3NC3CN21)(OCC)OCC (some centres not stated)
Readout value: 6.44

Compound: COCC(O)COC1=C(C)C(=O)C2=C(C1=O)C(COC(N)=O)[C@@]1(OC)C3NC3CN21 (some centres not stated)
Readout value: 6.94

Compound: CO[C@@]12C(COC(N)=O)C3=C(C(=O)C(C)=C(OCCN4CCCC4)C3=O)N1CC1NC12 (some centres not stated)
Readout value: 6.94

----------
# System: P388
# Experiment notes: Minimum effective dose was determined on P388 leukemia cells in mice
# Format: functional, Mus musculus
# MED per entry

Compound: CO[C@@]12C(COC(N)=O)C3=C(C(=O)C(C)=C(OCCSc4ccccc4)C3=O)N1CC1NC12 (some centres undefined)
MED [M/kg]: 6.73e-06

Compound: CO[C@@]12C(COC(N)=O)C3=C(C(=O)C(C)=C(OCCOc4ccccc4)C3=O)N1CC1NC12 (some centres undefined)
MED [M/kg]: 3.516e-06

Compound: COC1=C(C)C(=O)C2=C(C1=O)[C@@H](COC(N)=O)[C@@]1(OC)[C@H]3N[C@H]3CN21
MED [M/kg]: 1.43e-07

Compound: CO[C@@]12C(COC(N)=O)C3=C(C(=O)C(C)=C(OC4CC4)C3=O)N1CC1NC12 (some centres undefined)
MED [M/kg]: 1.3e-07

----------
# MED per entry
# Test system: P388
# Experiment notes: Minimum effective dose was determined on P388 leukemia cells in mice
# Format: functional, Mus musculus
Property name: MED (M/kg)

Compound: CO[C@@]12C(COC(N)=O)C3=C(C(=O)C(C)=C(OCC4COCO4)C3=O)N1CC1NC12 (some centres undefined)
Readout unit: M/kg
Readout value: 4.75e-07

Compound: COCC(O)COC1=C(C)C(=O)C2=C(C1=O)C(COC(N)=O)[C@@]1(OC)C3NC3CN21 (some centres undefined)
Readout unit: M/kg
Readout value: 1.16e-07

Compound: CO[C@@]12C(COC(N)=O)C3=C(C(=O)C(C)=C(OCCSCc4ccccc4)C3=O)N1CC1NC12 (some centres undefined)
Readout unit: M/kg
Readout value: 4.25e-07

Compound: CO[C@@]12C(COC(N)=O)C3=C(C(=O)C(C)=C(OCCSCCSCCO)C3=O)N1CC1NC12 (some centres undefined)
Readout unit: M/kg
Readout value: 1.603e-06

Compound: CCN1CCCC1CCOC1=C(C)C(=O)C2=C(C1=O)C(COC(N)=O)[C@@]1(OC)C3NC3CN21 (some centres undefined)
Readout unit: M/kg
Readout value: 1.09e-07

Compound: CO[C@@]12C(COC(N)=O)C3=C(C(=O)C(C)=C(OCCC4CCCN4C)C3=O)N1CC1NC12 (some centres undefined)
Readout unit: M/kg
Readout value: 7.033e-06

Compound: CO[C@@]12C(COC(N)=O)C3=C(C(=O)C(C)=C(OC4CCN(C)CC4)C3=O)N1CC1NC12 (some centres undefined)
Readout unit: M/kg
Readout value: 7.1e-06

Compound: CO[C@@]12C(COC(N)=O)C3=C(C(=O)C(C)=C(OC4CCOCC4)C3=O)N1CC1NC12 (some centres undefined)
Readout unit: M/kg
Readout value: 1.17e-07

Compound: CO[C@@]12C(COC(N)=O)C3=C(C(=O)C(C)=C(OCCCN4CCN(C)CC4)C3=O)N1CC1NC12 (some centres undefined)
Readout unit: M/kg
Readout value: 1.265e-05

Compound: CO[C@@]12C(COC(N)=O)C3=C(C(=O)C(C)=C(OCCN4CCCC4)C3=O)N1CC1NC12 (some centres undefined)
Readout unit: M/kg
Readout value: 1.13e-07

Compound: CO[C@@]12C(COC(N)=O)C3=C(C(=O)C(C)=C(OCCOCCCl)C3=O)N1CC1NC12 (some centres undefined)
Readout unit: M/kg
Readout value: 6.2e-08

Compound: CO[C@@]12C(COC(N)=O)C3=C(C(=O)C(C)=C(OCCCSCCCO)C3=O)N1CC1NC12 (some centres undefined)
Readout unit: M/kg
Readout value: 1.02e-07

Compound: CO[C@@]12C(COC(N)=O)C3=C(C(=O)C(C)=C(OCC4OCCO4)C3=O)N1CC1NC12 (some centres undefined)
Readout unit: M/kg
Readout value: 5.88e-07

Compound: CCSCC(O)COC1=C(C)C(=O)C2=C(C1=O)C(COC(N)=O)[C@@]1(OC)C3NC3CN21 (some centres undefined)
Readout unit: M/kg
Readout value: 4.33e-07

----------
# Experiment notes: Partition coefficient (logP)
# Format: physicochemical
# Setup conditions: octanol/water

Compound: CCOCCOC1=C(C)C(=O)C2=C(C1=O)C(COC(N)=O)[C@@]1(OC)C3NC3CN21 (stereo partly drawn)
logP: 0.79
--
Compound: CO[C@@]12C(COC(N)=O)C3=C(C(=O)C(C)=C(OCCCSCCCO)C3=O)N1CC1NC12 (stereo partly drawn)
logP: 3.49
--
Compound: CO[C@@]12C(COC(N)=O)C3=C(C(=O)C(C)=C(OCCOc4ccccc4)C3=O)N1CC1NC12 (stereo partly drawn)
logP: 2.39
--
Compound: CO[C@@]12C(COC(N)=O)C3=C(C(=O)C(C)=C(OCCCN(CCO)CCO)C3=O)N1CC1NC12 (stereo partly drawn)
logP: -0.28
--
Compound: COCC(C)OC1=C(C)C(=O)C2=C(C1=O)C(COC(N)=O)[C@@]1(OC)C3NC3CN21 (stereo partly drawn)
logP: 0.79
--
Compound: CO[C@@]12C(COC(N)=O)C3=C(C(=O)C(C)=C(OCCSC)C3=O)N1CC1NC12 (stereo partly drawn)
logP: 1.37
--
Compound: CCN1CCCC1CCOC1=C(C)C(=O)C2=C(C1=O)C(COC(N)=O)[C@@]1(OC)C3NC3CN21 (stereo partly drawn)
logP: 1.96
--
Compound: CO[C@@]12C(COC(N)=O)C3=C(C(=O)C(C)=C(OCc4cccs4)C3=O)N1CC1NC12 (stereo partly drawn)
logP: 2.07
--
Compound: CO[C@@]12C(COC(N)=O)C3=C(C(=O)C(C)=C(OCCSCCSCCO)C3=O)N1CC1NC12 (stereo partly drawn)
logP: 1.86
--
Compound: CO[C@@]12C(COC(N)=O)C3=C(C(=O)C(C)=C(OCC4COCO4)C3=O)N1CC1NC12 (stereo partly drawn)
logP: 0.31
--
Compound: CO[C@@]12C(COC(N)=O)C3=C(C(=O)C(C)=C(OCC4CC4)C3=O)N1CC1NC12 (stereo partly drawn)
logP: 1.67
--
Compound: CO[C@@]12C(COC(N)=O)C3=C(C(=O)C(C)=C(OCCC4CCCN4C)C3=O)N1CC1NC12 (stereo partly drawn)
logP: 1.46
--
Compound: CO[C@@]12C(COC(N)=O)C3=C(C(=O)C(C)=C(OCc4ccccn4)C3=O)N1CC1NC12 (stereo partly drawn)
logP: 0.91
--
Compound: CO[C@@]12C(COC(N)=O)C3=C(C(=O)C(C)=C(OC4CCOCC4)C3=O)N1CC1NC12 (stereo partly drawn)
logP: 1.29
--
Compound: CO[C@@]12C(COC(N)=O)C3=C(C(=O)C(C)=C(OCC4OCCO4)C3=O)N1CC1NC12 (stereo partly drawn)
logP: -0.18
--
Compound: CO[C@@]12C(COC(N)=O)C3=C(C(=O)C(C)=C(OC4CCN(C)CC4)C3=O)N1CC1NC12 (stereo partly drawn)
logP: 1.46
--
Compound: CCOC(=O)CCCOC1=C(C)C(=O)C2=C(C1=O)C(COC(N)=O)[C@@]1(OC)C3NC3CN21 (stereo partly drawn)
logP: 1.49
--
Compound: CO[C@@]12C(COC(N)=O)C3=C(C(=O)C(C)=C(OC4CC4)C3=O)N1CC1NC12 (stereo partly drawn)
logP: 1.17
